system: 633275-114-R-J1-PDC complex spheroids, viability; experiment: Anticancer human tumor 633275-114-R-J1-PDC patient-derived endometrial adenocarcinoma cell line growth inhibition [GQUAD]; conditions: curve of first compound; second compound 3.16 µM;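 note: spheroids exposed to the agents for seven days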
So I've got a bunch of molecules here, and I need their IC50 values.

Tell me the measured IC50 of CCc1c2c(nc3ccc(O)cc13)-c1cc3c(c(=O)n1C2)COC(=O)[C@]3(O)CC + Cc1cnc(CNC(=O)c2c(=O)c3ccc(N4CCCN(C)CC4)nc3n3c2sc2ccccc23)cn1 , please.
< 0.999 nM

Query COc1ncnc(C2CC2)c1-c1ncc2cnn(Cc3ccc(-c4nc(C(F)(F)F)cn4C(C)C)cc3)c2n1 + Cc1[nH]c2ccc(F)cc2c1-c1nc2c3cccnc3c3ncccc3c2[nH]1 next
> 10000 nM

Same read-out for CC(=O)O[C@H]1C(=O)[C@@]2(C)[C@H]([C@H](OC(=O)c3ccccc3)[C@]3(O)C[C@H](OC(=O)[C@H](O)[C@@H](NC(=O)c4ccccc4)c4ccccc4)C(C)=C1C3(C)C)[C@]1(OC(C)=O)CO[C@@H]1C[C@@H]2O + CN(C)c1ccc(Nc2c3ccc(NC(=O)CCN4CCCC4)cc3nc3cc(NC(=O)CCN4CCCC4)ccc23)cc1 ?
< 31.6 nM

And for CC1COCCN1c1cc(C2(O)CC3CCC(C2)O3)c2cnn(-c3ccn[nH]3)c2n1 (stereo not given) + Cc1cnc(CNC(=O)c2c(=O)c3ccc(N4CCCN(C)CC4)nc3n3c2sc2ccccc23)cn1 ?
< 31.6 nM

Follow-up item: CC(=O)O[C@H]1C(=O)[C@@]2(C)[C@H]([C@H](OC(=O)c3ccccc3)[C@]3(O)C[C@H](OC(=O)[C@H](O)[C@@H](NC(=O)c4ccccc4)c4ccccc4)C(C)=C1C3(C)C)[C@]1(OC(C)=O)CO[C@@H]1C[C@@H]2O + Cc1cnc(CNC(=O)c2c(=O)c3ccc(N4CCCN(C)CC4)nc3n3c2sc2ccccc23)cn1
< 31.6 nM

Cc1cccc(N(C)C(=O)C2C(O)CCN2c2nc(C)cc(C(F)(F)F)c2C#N)c1 (stereo not given) + Cc1cnc(CNC(=O)c2c(=O)c3ccc(N4CCCN(C)CC4)nc3n3c2sc2ccccc23)cn1 , same question.
< 31.6 nM

And for CC(C)n1c(=O)n(C)c2cnc3cc(F)c(-c4ccc(OCCCN5CCCCC5)nc4)cc3c21 + Cc1cnc(CNC(=O)c2c(=O)c3ccc(N4CCCN(C)CC4)nc3n3c2sc2ccccc23)cn1 ?
< 31.6 nM

// next record Cn1ncnc1[C@H]1c2n[nH]c(=O)c3cc(F)cc(c23)N[C@@H]1c1ccc(F)cc1 + Cc1cnc(CNC(=O)c2c(=O)c3ccc(N4CCCN(C)CC4)nc3n3c2sc2ccccc23)cn1
< 0.999 nM

Same thing, different molecule: CC(C)(O)C1CCC(Nc2ccc3ncc(-c4cccc(C(F)(F)F)c4)n3n2)CC1 (stereo not given) + Cc1cnc(CNC(=O)c2c(=O)c3ccc(N4CCCN(C)CC4)nc3n3c2sc2ccccc23)cn1
< 31.6 nM

Follow-up item: C=CC(=O)N1CCN(c2nc(=O)n(-c3c(C)ccnc3C(C)C)c3nc(-c4c(O)cccc4F)c(F)cc23)C(C)C1 (stereo not given) + CN(C)c1ccc(Nc2c3ccc(NC(=O)CCN4CCCC4)cc3nc3cc(NC(=O)CCN4CCCC4)ccc23)cc1
> 10000 nM
